The measurements presented in this section are drawn from paper PMC3713010.

# TARGET_OR_TEST_SYSTEM: Pax6 DNA-binding domain (BD-Pax6) (Mus musculus (B6), UniProt P63015 190-289)
# Sequence (P63015 190-289): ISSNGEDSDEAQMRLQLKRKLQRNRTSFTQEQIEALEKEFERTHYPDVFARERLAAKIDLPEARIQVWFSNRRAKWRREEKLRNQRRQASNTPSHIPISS
# EXPERIMENTAL_DETAILS: EMSA; 10% glycerol, 20 mM HEPES pH 7.8, 45 mM KCl, 10 mM NaCl, 1 mM EDTA, 1 mM DTT, 0.2 ug/uL BSA, 0.1% NP-40, 50 ng poly-dIdC; 20 ng each GST protein; room temperature 30 min (heterodimers 4 C); 6% PAGE 0.25x TBE
# CONDITION_DETAILS: protein: recombinant; tags: GST (N-terminal, pGEX-6P-1); label: 32P-dCTP fill-in of the 5' (dG)5 overhangs of both strands (Methods; control probes are given with GGG)
MEASURED_ENDPOINT: binding result

Examples with their reported binding result follow.
Reported binding result for 105 (dsDNA) DNA 1: GGGGGATTTTTTAAAAAATTAGACTACCACAAATCAACTGTCCCCC DNA 2: GGGGGACAGTTGATTTGTGGTAGTCTAATTTTTTAAAAAATCCCCC : what is it?
binds

Reported binding result for 118 (dsDNA) DNA 1: GGGGGGACAAGGGTCAATTTGCTAGACAAAGATCTTCACCCCC DNA 2: GGGGGTGAAGATCTTTGTCTAGCAAATTGACCCTTGTCCCCCC : what is it?
no binding

Reported binding result for 35 (dsDNA) DNA 1: GGGGGGTTTCTCTAATTAATAGACTTCATTGTTCAAAACTATTTTACATTTGTTCCCCC DNA 2: GGGGGAACAAATGTAAAATAGTTTTGAACAATGAAGTCTATTAATTAGAGAAACCCCCC : what is it?
binds

Reported binding result for 6 (dsDNA) DNA 1: GGGGGAGGACTTAATTGTTCGCATTTCTGTATTCTGCCCCC DNA 2: GGGGGCAGAATACAGAAATGCGAACAATTAAGTCCTCCCCC : what is it?
no binding

Reported binding result for 73 (dsDNA) DNA 1: GGGGGCTTGTCCTCAGCATCTATGGTAACACACAAATCCTGAAGCCCCC DNA 2: GGGGGCTTCAGGATTTGTGTGTTACCATAGATGCTGAGGACAAGCCCCC : what is it?
no binding

Reported binding result for 91 (dsDNA) DNA 1: GGGGGTTTGTTTGTTTGTTTTTAAAAATAAGGTCTCGGGCCCCC DNA 2: GGGGGCCCGAGACCTTATTTTTAAAAACAAACAAACAAACCCCC : what is it?
binds

Reported binding result for 14 (dsDNA) DNA 1: GGGGGGTCAGGATTTTGTGTGTGGATTAACTGTATCATCCCCC DNA 2: GGGGGATGATACAGTTAATCCACACACAAAATCCTGACCCCCC : what is it?
no binding

Reported binding result for 16a (dsDNA) DNA 1: GGGGGGTGAACCCTTTCAGATTTAGTGACGTAGCTTCACAAAGTGATTAACCCCC DNA 2: GGGGGTTAATCACTTTGTGAAGCTACGTCACTAAATCTGAAAGGGTTCACCCCCC : what is it?
no binding

Reported binding result for 24 (dsDNA) DNA 1: GGGGGCTTGTATCTTTGTATGTTCACAGAAAGCAAAGTAGCGTGGCCCCC DNA 2: GGGGGCCACGCTACTTTGCTTTCTGTGAACATACAAAGATACAAGCCCCC : what is it?
no binding

Reported binding result for 45 (dsDNA) DNA 1: GGGGGAAATGTGCTTTATTTCACAAAATCAACAACCCCC DNA 2: GGGGGTTGTTGATTTTGTGAAATAAAGCACATTTCCCCC : what is it?
binds

More entries:
Reported binding result for 52 (dsDNA) DNA 1: GGGGGGGGGCAGCACAAATATTTCTGTGAATGTACCCCC DNA 2: GGGGGTACATTCACAGAAATATTTGTGCTGCCCCCCCCC : what is it?
no binding

Reported binding result for 82 (dsDNA) DNA 1: GGGGGACTATTTATTTGTGTTTTCCTATTCACTTTACATCCCCC DNA 2: GGGGGATGTAAAGTGAATAGGAAAACACAAATAAATAGTCCCCC : what is it?
no binding

Reported binding result for 85 (dsDNA) DNA 1: GGGGGACATATGCAATTGTTTCCTGTATTATAGTAGAGATCCCCC DNA 2: GGGGGATCTCTACTATAATACAGGAAACAATTGCATATGTCCCCC : what is it?
binds

Reported binding result for 127 (dsDNA) DNA 1: GGGGGTTTTGTTTTTTGTTTAAAGCAATAACATATTCAGCCCCC DNA 2: GGGGGCTGAATATGTTATTGCTTTAAACAAAAAACAAAACCCCC : what is it?
binds

Reported binding result for 107 (dsDNA) DNA 1: GGGGGACTAGTTTTCTATTACTACAAATCTCAACTCCCCC DNA 2: GGGGGAGTTGAGATTTGTAGTAATAGAAAACTAGTCCCCC : what is it?
no binding

Reported binding result for 9 (dsDNA) DNA 1: GGGGGTCCTGCCACTTGGGTTGCAGTGAGGACAATGAAATGAGCCCCC DNA 2: GGGGGCTCATTTCATTGTCCTCACTGCAACCCAAGTGGCAGGACCCCC : what is it?
no binding

Reported binding result for 110 (dsDNA) DNA 1: GGGGGTTTATTTATTTGTTTTATTTCTATTTTTCTTGGTGACCCCC DNA 2: GGGGGTCACCAAGAAAAATAGAAATAAAACAAATAAATAAACCCCC : what is it?
no binding

Reported binding result for 32 (dsDNA) DNA 1: GGGGGCGTTGCACACAAACCTTAATTTTCCAATCTATTCCCCC DNA 2: GGGGGAATAGATTGGAAAATTAAGGTTTGTGTGCAACGCCCCC : what is it?
binds
